Every entry's value here was drawn from PubChem BioAssay (NCI).

- Test system: SW-620 colon
- assay-info: NCI tumour cell line growth inhibition, 48 h; in the data active = GI50 below about 0.43 µM; inactive = the rest
Classes used: active, inactive

compound | class-name
CCCCn1c(-c2ccc(C(=O)O/N=C(\N)c3ccc4c(c3)OCO4)cc2)nc(-c2ccccc2)c1-c1ccccc1 | inactive
C=C1C(=O)O[C@H]2[C@H]1CC/C(COC(=O)NCC(C)c1ccc(CC(C)C)cc1)=C\CC[C@@]1(C)O[C@@H]21 (some centres not stated) | inactive
O=c1oc2ccc(I)cc2c(=O)n1-c1ccc(Cl)cc1F | inactive
CCC1=CC2CN(C1)Cc1c([nH]c3ccccc13)[C@@](C(=O)OC)(c1cc3c(cc1OC)N(C)[C@H]1[C@@](O)(C(=O)OC)[C@H](OC(C)=O)[C@]4(CC)C=CCN5CC[C@]31[C@@H]54)C2 (some centres not stated) | active
C=C(CNCCc1ccc(O)cc1)[C@@H]1CC[C@]2(COC3CCCCO3)CC[C@]3(C)[C@H](CC[C@@H]4[C@@]5(C)CCC(NCCO)C(C)(C)[C@@H]5CC[C@]43C)[C@@H]12 (some centres not stated) | active
CN1/C(=C\C=C\C2=[N+](C)c3ccccc3C2(C)C)C(C)(C)c2ccccc21 | active
CNC(=O)c1nn(C)c2c1C(C)(C)Cc1cnc(Nc3ccc(N4CCN(C)CC4)cc3)nc1-2 | inactive
